Reported pIC50 values are given for each entry in this list.
# test-target: recombinant human c-Met/HGF receptor (Homo sapiens, UniProt P08581)
# Construct: His tag (pBlueBacHis2A vector); made in house; host or cells: Hi-5 cells (Trichoplusia ni), baculovirus
# Sequence (P08581 1078-1337): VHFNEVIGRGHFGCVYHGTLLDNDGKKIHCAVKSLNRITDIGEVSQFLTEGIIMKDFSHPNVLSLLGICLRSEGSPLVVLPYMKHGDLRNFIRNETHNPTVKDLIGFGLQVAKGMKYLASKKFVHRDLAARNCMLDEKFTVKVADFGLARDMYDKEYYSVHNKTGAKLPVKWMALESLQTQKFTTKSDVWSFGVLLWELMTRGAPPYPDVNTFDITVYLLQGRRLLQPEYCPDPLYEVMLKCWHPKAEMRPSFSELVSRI
# assay-info: In vitro receptor tyrosine kinase assay (DELFIA), c-Met/HGF receptor
# Type: biochemical
# experimental-context: read-out: CMET IC50
pIC50: −log10 of the molar value.

Guide cases for pIC50, answers given:
[
  {
    "molecule": "CN1CCN(Cc2ccc(-c3cc4ncnc(Oc5ccc(NC(=O)CC(=O)Nc6ccccc6)cc5F)c4s3)cc2)CC1",
    "pIC50": "6.60 to 7.30"
  },
  {
    "molecule": "CCn1cnc(-c2cc3nccc(Oc4ccc(NC(=O)CC(=O)Nc5ccc(OC)cc5)cc4F)c3s2)c1",
    "pIC50": "6.60 to 7.30"
  },
  {
    "molecule": "CN1CCN(C(=O)C2(C(=O)Nc3ccc(Oc4ccnc5cc(-c6cn(C)cn6)sc45)c(F)c3)CC2)c2ccccc21",
    "pIC50": "< 6.30"
  },
  {
    "molecule": "CCn1cnc(-c2cc3nccc(Oc4ccc(NC(=O)CC(=O)Nc5ccccc5)cc4F)c3s2)c1C",
    "pIC50": "> 7.30"
  },
  {
    "molecule": "Cn1cncc1-c1cc2nccc(Oc3ccc(NC(=O)CC(=O)Nc4ccccc4O)cc3F)c2s1",
    "pIC50": "6.60 to 7.30"
  },
  {
    "molecule": "COc1ccccc1NC(=O)CC(=O)Nc1ccc(Oc2ccnc3cc(-c4nccn4C)sc23)c(F)c1 [drawing 284]",
    "pIC50": "> 7.30"
  },
  {
    "molecule": "CN(C)CCn1cnc(-c2cc3nccc(Oc4ccc(NC(=O)C5(C(=O)Nc6ccccc6)CC5)cc4F)c3s2)c1",
    "pIC50": "> 7.30"
  },
  {
    "molecule": "CCn1cnc(-c2cc3nccc(Oc4ccc(NC(=O)CC(=O)Nc5ccc(F)cc5)cc4F)c3s2)c1",
    "pIC50": "> 7.30"
  },
  {
    "molecule": "Cn1cnc(-c2cc3nccc(Oc4ccc(NC(=O)N5CCN(c6ccccc6)C5=S)cc4F)c3s2)c1",
    "pIC50": "< 6.30"
  },
  {
    "molecule": "COc1ccccc1NC(=O)CC(=O)Nc1ccc(Oc2ccnc3cc(C4=CCCN(C)C4)sc23)c(F)c1",
    "pIC50": "6.60 to 7.30"
  }
]

Reported pIC50, molecule CN(C)CCn1cnc(-c2cc3nccc(Oc4ccc(NC(=O)CC(=O)Nc5ccccc5F)cc4F)c3s2)c1 : ____
> 7.30

Reported pIC50, molecule CN1CCN(CCN(C)Cc2ccc(-c3cc4nccc(Oc5ccc(NC(=O)C6CCN(c7ccccc7)C6=O)cc5F)c4s3)cc2)CC1 (centres unmarked) : ____
> 7.30

Reported pIC50, molecule Cn1ccnc1-c1cc2nccc(Oc3ccc(NC(=O)N4CCN(c5ccccc5)C4=O)cc3F)c2s1 : ____
> 7.30

Reported pIC50, molecule CN1CCN(CCN(C)Cc2ccc(-c3cc4nccc(Oc5ccc(NC(=O)CC(=O)Nc6ccccc6)cc5F)c4s3)cc2)CC1 [drawing 351] : ____
> 7.30

Reported pIC50, molecule CN(C)[C@H]1CCN(Cc2ccc(-c3cc4nccc(Oc5ccc(NC(=O)CC(=O)Nc6ccccc6)cc5F)c4s3)cc2)C1 : ____
6.60 to 7.30

Reported pIC50, molecule CCn1cnc(-c2cc3nccc(Oc4ccc(NC(=O)CC(=O)Nc5ccccc5OC)cc4F)c3s2)c1 [drawing 292] : ____
> 7.30

====

# test-target: recombinant human c-Met/HGF receptor (Homo sapiens, UniProt P08581)
# Construct: His tag (pBlueBacHis2A vector); made in house; host or cells: Hi-5 cells (Trichoplusia ni), baculovirus
# assay-info: In vitro receptor tyrosine kinase assay (DELFIA), c-Met/HGF receptor
# Type: biochemical
# experimental-context: recombinant c-Met IC, 10 uM ATP, DELFIA; read-out: C-Met (IC50)
observed-property: IC50 (nM)

[
  {
    "compound": "CN(C(=O)CC(=O)Nc1ccc(Oc2ccnc3cc(-c4nccn4C)sc23)c(F)c1)c1ccccc1 [Compound 32]",
    "IC50 (nM)": 109
  },
  {
    "compound": "Cn1ccnc1-c1cc2nccc(Oc3ccc(NC(=O)CC(=O)Oc4ccccc4)cc3F)c2s1 [Compound 47]",
    "IC50 (nM)": 173
  },
  {
    "compound": "O=C(CC(=O)Nc1ccc(Oc2ccnc3ccsc23)c(F)c1)Nc1ccccc1 [Compound 5a]",
    "IC50 (nM)": 270
  },
  {
    "compound": "CCn1cnc(-c2cc3nccc(Oc4ccc(NC(=O)CC(=O)Nc5ccccc5F)cc4F)c3s2)c1 [Compound 30b]",
    "IC50 (nM)": 24
  },
  {
    "compound": "COc1ccccc1NC(=O)CC(=O)Nc1ccc(Oc2ccnc3cc(-c4nccn4C)sc23)c(F)c1 [Compound 28a]",
    "IC50 (nM)": 42
  },
  {
    "compound": "CCn1cnc(-c2cc3nccc(Oc4ccc(NC(=O)CC(=O)Nc5ccccc5OC)cc4F)c3s2)c1 [Compound 28b]",
    "IC50 (nM)": 25
  }
]

1. COc1ccccc1NC(=O)CC(=O)Nc1ccc(Oc2ccnc3cc(-c4ccc(CN5CCCC5)cc4)sc23)c(F)c1 [Compound 48]
2. Cn1ccnc1-c1cc2nccc(Oc3ccc(NC(=O)CC(=O)Nc4cccnc4)cc3F)c2s1 [Compound 40]
3. Cn1cnc(-c2cc3nccc(Oc4ccc(NC(=O)CC(=O)Nc5ccccc5)cc4F)c3s2)c1 [Compound 5c]
Please put the entries in order of rising IC50. Provide the ranking by listing each label in its place in the requested order.
3, 1, 2

P. O=C(CC(=O)Nc1ccc(Oc2ccnc3cc(C(=O)N4CCCC4)sc23)c(F)c1)Nc1ccccc1 [Compound 5f]
Q. CN(C)[C@@H]1CCN(C(=O)c2cc3nccc(Oc4ccc(NC(=O)CC(=O)Nc5ccccc5)cc4F)c3s2)C1 [Compound 5g]
Which record shows the lower IC50: the first, P , or the second, Q ? Mark your selection by writing its label.
P

P. Cn1ccnc1-c1cc2nccc(Oc3ccc(NC(=O)CC(=O)Nc4ccncc4)cc3F)c2s1 [Compound 34]
Q. Cn1ccnc1-c1cc2nccc(Oc3ccc(NC(=O)CC(=O)Nc4ccccc4F)cc3F)c2s1 [Compound 30a]
R. CC(C(=O)Nc1ccccc1)C(=O)Nc1ccc(Oc2ccnc3cc(-c4nccn4C)sc23)c(F)c1 (centres unmarked) [Compound 38]
Hey, quick one: sort these by IC50, largest value first please. Provide the ranking by listing each label in its place in the requested order.
P, R, Q
(P: 365 nM, R: 77 nM, Q: 31 nM)

I. COc1ccccc1NC(=O)CC(=O)Nc1ccc(Oc2ccnc3cc(-c4cncn4C)sc23)c(F)c1 [Compound 28c]
II. Cn1cncc1-c1cc2nccc(Oc3ccc(NC(=O)CC(=O)Nc4cccnc4)cc3F)c2s1 [Compound 41]
Returns: the argument ( I or II ) having the larger IC50. Mark your selection by writing its label.
II

====

Reported pIC50 values are given for each entry in this list.
# test-target: VEGF receptor KDR (Homo sapiens, UniProt P35968)
# Construct: made in house; host or cells: Sf9 cells (Spodoptera frugiperda), baculovirus
# Sequence (P35968 806-1356): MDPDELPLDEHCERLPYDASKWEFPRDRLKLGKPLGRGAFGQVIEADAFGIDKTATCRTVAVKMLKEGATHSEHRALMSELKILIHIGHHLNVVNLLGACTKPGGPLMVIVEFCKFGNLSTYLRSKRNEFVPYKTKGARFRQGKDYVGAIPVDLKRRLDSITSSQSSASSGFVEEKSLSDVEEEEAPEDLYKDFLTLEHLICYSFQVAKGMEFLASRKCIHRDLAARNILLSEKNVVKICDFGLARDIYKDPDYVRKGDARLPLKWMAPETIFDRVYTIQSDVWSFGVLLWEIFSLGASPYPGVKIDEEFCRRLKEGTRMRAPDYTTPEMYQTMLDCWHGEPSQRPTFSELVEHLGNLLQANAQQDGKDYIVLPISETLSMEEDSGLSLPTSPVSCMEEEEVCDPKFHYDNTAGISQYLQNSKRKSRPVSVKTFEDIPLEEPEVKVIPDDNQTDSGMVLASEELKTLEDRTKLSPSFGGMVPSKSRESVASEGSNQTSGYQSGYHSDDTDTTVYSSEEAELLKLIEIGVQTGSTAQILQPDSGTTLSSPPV
# assay-info: In vitro receptor tyrosine kinase assay (DELFIA), VEGF receptor KDR
# Assay type: biochemical
# experimental-context: read-out: VEGFR IC50
pIC50: −log10 of the molar value.

Reported pIC50, compound CCn1cnc(-c2cc3nccc(Oc4ccc(NC(=O)CC(=O)Nc5cccc(F)c5)cc4F)c3s2)c1 : ____
> 7.30

====

# test-target: VEGF receptor KDR (Homo sapiens, UniProt P35968)
# Construct: made in house; host or cells: Sf9 cells (Spodoptera frugiperda), baculovirus
# assay-info: In vitro receptor tyrosine kinase assay (DELFIA), VEGF receptor KDR
# Format: biochemical
# experimental-context: read-out: VEGFR IC50
Reported IC50 values are given for each entry in this list.

Guide cases for IC50, answers given:
[
  {
    "compound": "O=C(Cn1cnc(-c2cc3nccc(Oc4ccc(NC(=O)CC(=O)Nc5ccccc5)cc4F)c3s2)c1)NCCCN1CCCC1",
    "measurement": "< 50 nM"
  },
  {
    "compound": "CCn1cnc(-c2cc3nccc(Oc4ccc(NC(=O)N5CCN(c6ccccc6OC)C5=O)cc4F)c3s2)c1",
    "measurement": "< 50 nM"
  },
  {
    "compound": "COc1ccccc1NC(=O)CC(=O)Nc1ccc(Oc2ccnc3cc(-c4ccc(OCCCN(C)C)c(OCCCN(C)C)c4)sc23)c(F)c1",
    "measurement": "50 to 250 nM"
  },
  {
    "compound": "Cn1cnc(-c2cc3nccc(Oc4ccc(NC(=O)N5CCN(c6ccccc6)C5=O)cc4)c3s2)c1",
    "measurement": "50 to 250 nM"
  },
  {
    "compound": "O=C(Nc1ccc(Oc2ccnc3cc(-c4cn(CCN5CCCC5)cn4)sc23)c(F)c1)C1CCN(c2ccccc2)C1=O (stereo not drawn)",
    "measurement": "< 50 nM"
  }
]

Turning to the following compound.
Reported IC50, compound CCCn1cnc(-c2cc3nccc(Oc4ccc(NC(=O)CC(=O)Nc5ccccc5OC)cc4F)c3s2)c1 : ____
< 50 nM
